Source listed as paper PMC6384738.

- Test system: E. coli ATCC 25922
- Protocol notes: microbe, parasite or virus in culture
- Assay setup: ATCC 25922, 18 h
Where a SMILES comes first, the peptide text is derived from it. Bridges are numbered along the chain shown (N, C = ends). [ ]: non-standard residue; d: D form. The star is where a group is joined. Hexanoyl(6-Ph) = O=C(CCCCCc1ccccc1)*; Cit = NC(=O)NCCC[C@H](N)C(=O)O; dDab = NCC[C@@H](N)C(=O)O; Octanoyl = CCCCCCCC(=O)*; Dab = NCC[C@H](N)C(=O)O
Exam item: assign met to entries whose MIC E. coli ATCC 25922 is below 4 µg/mL and not met to entries at or above 4 µg/mL. Note that a value of exactly 4 µg/mL receives not met.

Given CC(C)C[C@@H]1NC(=O)[C@@H](Cc2ccccc2)NC(=O)[C@H](CCN)NC(=O)[C@@H](NC(=O)[C@@H](CCN)NC(=O)[C@@H](NC(=O)CCCCCc2ccccc2)[C@@H](C)O)CCNC(=O)[C@H]([C@@H](C)O)NC(=O)[C@H](CCN)NC(=O)[C@H](CCN)NC1=O [Compound 25] ({Hexanoyl(6-Ph)}-T[dDab][Dab][Dab][dF]L[Dab][Dab]T; lactam 3-C) , is recorded MIC E. coli ATCC 25922 strictly lower than 4 µg/mL?
met

Given CCCCCCCC(=O)N[C@H](C(=O)N[C@@H](CC(N)=O)C(=O)N[C@H]1CCNC(=O)[C@H]([C@@H](C)O)NC(=O)[C@H](CCN)NC(=O)[C@H](CCN)NC(=O)[C@H](CC(C)C)NC(=O)[C@@H](Cc2ccccc2)NC(=O)[C@H](CCN)NC1=O)[C@@H](C)O [Compound 38] (Octanoyl-TN[Dab][Dab][dF]L[Dab][Dab]T; lactam 3-C) , is recorded MIC E. coli ATCC 25922 strictly lower than 4 µg/mL?
not met

Given CCCCCCCC(=O)N[C@@H](CO)C(=O)N[C@H](CCN)C(=O)N[C@H]1CCNC(=O)[C@H]([C@@H](C)O)NC(=O)[C@H](CCN)NC(=O)[C@H](CCN)NC(=O)[C@H](CC(C)C)NC(=O)[C@@H](Cc2ccccc2)NC(=O)[C@H](CCN)NC1=O [Compound 30] (Octanoyl-S[dDab][Dab][Dab][dF]L[Dab][Dab]T; lactam 3-C) , is recorded MIC E. coli ATCC 25922 strictly lower than 4 µg/mL?
not met

Given CCCCCCCC(=O)N[C@H](C(=O)N[C@@H](CCCNC(=N)N)C(=O)N[C@H]1CCNC(=O)[C@H]([C@@H](C)O)NC(=O)[C@H](CCN)NC(=O)[C@H](CCN)NC(=O)[C@H](CC(C)C)NC(=O)[C@@H](Cc2ccccc2)NC(=O)[C@H](CCN)NC1=O)[C@@H](C)O [Compound 45] (Octanoyl-TR[Dab][Dab][dF]L[Dab][Dab]T; lactam 3-C) , is recorded MIC E. coli ATCC 25922 strictly lower than 4 µg/mL?
met

Given CCCCCCCC(=O)NCC(=O)N[C@H](CCN)C(=O)N[C@H]1CCNC(=O)[C@H]([C@@H](C)O)NC(=O)[C@H](CCN)NC(=O)[C@H](CCN)NC(=O)[C@H](CC(C)C)NC(=O)[C@@H](Cc2ccccc2)NC(=O)[C@H](CCN)NC1=O [Compound 33] (Octanoyl-G[dDab][Dab][Dab][dF]L[Dab][Dab]T; lactam 3-C) , is recorded MIC E. coli ATCC 25922 strictly lower than 4 µg/mL?
not met

Given CCCCCCCC(=O)N[C@H](C(=O)N[C@@H](CCCNC(N)=O)C(=O)N[C@H]1CCNC(=O)[C@H]([C@@H](C)O)NC(=O)[C@H](CCN)NC(=O)[C@H](CCN)NC(=O)[C@H](CC(C)C)NC(=O)[C@@H](Cc2ccccc2)NC(=O)[C@H](CCN)NC1=O)[C@@H](C)O [Compound 44] (Octanoyl-T[Cit][Dab][Dab][dF]L[Dab][Dab]T; lactam 3-C) , is recorded MIC E. coli ATCC 25922 strictly lower than 4 µg/mL?
not met

Given CC(C)C[C@@H]1NC(=O)[C@@H](Cc2ccccc2)NC(=O)[C@H](CCN)NC(=O)[C@@H](NC(=O)[C@H](CCN)NC(=O)[C@@H](NC(=O)CCCCCc2ccccc2)[C@@H](C)O)CCNC(=O)[C@H]([C@@H](C)O)NC(=O)[C@H](CCN)NC(=O)[C@H](CCN)NC1=O [Compound 13] ({Hexanoyl(6-Ph)}-T[Dab][Dab][Dab][dF]L[Dab][Dab]T; lactam 3-C) , is recorded MIC E. coli ATCC 25922 strictly lower than 4 µg/mL?
met
